Origin of values: the supplement of paper PMC10567573

Please provide measured protein stability index for the entries that follow.
B1: TMEM106C (parent)
chain: YVTTNVSLIPPRSEQLVNFTGKAE

variants of: B1; test: protein stability index of a GFP-peptide fusion (GPS, HEK-293T) (PSI 1-6); higher = more stable; conditions: c terminus: a fixed tail appended;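 also: lentivirally expressed fusions sorted by FACS into six bins by GFP to DsRed ratio, PSI derived from sequencing read proportions per bin multiplied by bin number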
I only need the number, thanks.

Q: Tell me the measured protein stability index of `E24H` , please.
Ans: 1.49

Q: Tell me the measured protein stability index of `V6K` , please.
Ans: 1.87

Q: Tell me the measured protein stability index of `R12G` , please.
Ans: 2.49

Q: Tell me the measured protein stability index of `N18Q` , please.
Ans: 2.07

Q: Tell me the measured protein stability index of `E14F` , please.
Ans: 1.99

Q: Tell me the measured protein stability index of `N5I` , please.
Ans: 2.24

Q: Tell me the measured protein stability index of `T4G` , please.
Ans: 1.89

Q: Tell me the measured protein stability index of `V17W` , please.
Ans: 3.01

Q: Tell me the measured protein stability index of `E14K` , please.
Ans: 2.16

Q: Tell me the measured protein stability index of `L8E` , please.
Ans: 2.61

Q: Tell me the measured protein stability index of `I9A` , please.
Ans: 2.94

Q: Tell me the measured protein stability index of `L8Y` , please.
Ans: 1.86

Q: Tell me the measured protein stability index of `E24G` , please.
Ans: 1.64

Q: Tell me the measured protein stability index of `K22M` , please.
Ans: 2.54

Q: Tell me the measured protein stability index of `G21C` , please.
Ans: 1.83

Q: Tell me the measured protein stability index of `E14I` , please.
Ans: 2.17

Q: Tell me the measured protein stability index of `V6H` , please.
Ans: 1.59

Q: Tell me the measured protein stability index of `S13R` , please.
Ans: 1.86

Q: Tell me the measured protein stability index of `K22Y` , please.
Ans: 1.61

Q: Tell me the measured protein stability index of `N5M` , please.
Ans: 2.16

Q: Tell me the measured protein stability index of `P11V` , please.
Ans: 1.41

Q: Tell me the measured protein stability index of `G21V` , please.
Ans: 2.12
